experimental.target: T1, CD137-hisFc fusion protein (Sino Biological Cat 10041-H03H) (human, UniProt Q07011 24-186)
T1 construct: Bought; also called recombinant human CD137 (fused with human Fc and His tag); not shown: His tag and human Fc
experiment.summary: BLI Octet, Fab
Quick list: Kd per entry.
Just so you know, I need the unit written after the number.

Examples with answers:
Fab 4079 (Fab, V domains shown, Fab from E. coli; also called VH5/VL5) VH: EVQLVESGGGLVQPGGSLRLSCAASGFTFTGYWIHWVRQAPGKGLEWVGRIRSKTDGYTTEYAAPVKGRFTISRDNSKNTLYLQLNSLRAEDTAVYYCARLGGHWYFDVWGQGTLVTVSS VL: DIQLTQSPSSLSASVGDRVTITCRASQSIGRYLNWYQQKPGKAPKLLIYDASNLETGVPSRFSGSGSGTDFTLTISSLQPEDFATYYCEQPLELPRTFGQGTKVEIKR    31.5 nM
Fab 4217 (Fab, V domains shown, Fab from E. coli; also called VH10/VL10) VH: EVQLVESGGGLVQPGGSLRLSCAASGYSISSGYYWDWIRQAPGKGLEWVSSISGDGDTTYYADSVKGRFTISRDNSKNTLYLQLNSLRAEDTAVYYCAREYYGYGYALDYWGQGTLVTVSS VL: DIQLTQSPSSLSASVGDRVTITCRASQGISSYLAWYQQKPGKAPKLLIYDASSLESGVPSRFSGSGSGTDFTLTISSLQPEDFATYYCQQYYSTPLTFGQGTKVEIKR    96.7 nM

Lookup result for Fab 4076 (Fab, V domains shown, Fab from E. coli; also called VH4/VL4) VH: EVQLVESGGGLVQPGGSLRLSCAASGYSITSGYHWGWIRQAPGKGLEWVSAISGAGGSTYYADSVKGRFTISRDNSKNTLYLQLNSLRAEDTAVYYCARDGYGGSYFDYWGQGTLVTVSS VL: DIQLTQSPSSLSASVGDRVTITCQASQDISTFLAWYQQKPGKAPKLLIYDASSLESGVPSRFSGSGSGTDFTLTISSLQPEDFATYYCQQAYSIWTFGQGTKVEIKR ; measured Kd: 7.44 nM
